# Organism: Homo sapiens
# assay.text: Selectivity index, ratio of IC50 for human recombinant MAO-A to IC50 for human recombinant MAO-B
Assign Ratio IC50 to each entry below.
// keep it numeric: no unit symbol after the value

INPUT: Look at this compound and give its reported Ratio IC50. "O=C(SCc1ccco1)c1cc2cc([N+](=O)[O-])ccc2oc1=O"
OUTPUT: 2.9

INPUT: Entry under review: "CC(C)(C)NC(=O)c1cc2ccccc2oc1=O" . Reported Ratio IC50?
OUTPUT: 5.1

INPUT: // returns reported Ratio IC50 for input "O=C(SCc1ccco1)c1cc2ccccc2oc1=O"
OUTPUT: 189

INPUT: Record request: Ratio IC50 value, item "CCCCSC(=O)c1cc2ccccc2oc1=O"
OUTPUT: 3.8

INPUT: // query Ratio IC50 value for entry "O=C(Sc1ccc(Br)cc1)c1cc2ccccc2oc1=O"
OUTPUT: 3.5

INPUT: Field request: Ratio IC50 | item: "O=C(Sc1ccc(Br)cc1)c1cc2cc(C(F)(F)F)ccc2oc1=O"
OUTPUT: 3.9

INPUT: What value of Ratio IC50 has been reported for the following compound? "O=C(Sc1ncccn1)c1cc2ccccc2oc1=O"
OUTPUT: 7.8

INPUT: Need Ratio IC50 of "O=C(SCc1ccco1)c1cc2cc(Br)c(Br)cc2oc1=O" , thanks.
OUTPUT: 10.6
